# Test Target: Chymotrypsin (Bos taurus)
# Construct: purchased Worthington
# Assay Procedure: Chymotrypsin inhibition (Ac-AAPPhN hydrolysis, 410 mμ)
# Type: biochemical, bovine
Experimental Endpoint: IC50
Record the result as number plus unit.

Looking up O=C1c2ccccc2S(=O)(=O)N1c1ccc([N+](=O)[O-])cc1 [reference compound] , I found its IC50 recorded as 329 µM

Looking up O=C(c1cccs1)N1C(=O)c2ccccc2S1(=O)=O [reference compound] , I found its IC50 recorded as 0.682 µM

Looking up O=C1c2ccccc2S(=O)(=O)N1c1ccc([N+](=O)[O-])cc1[N+](=O)[O-] , I found its IC50 recorded as 1.43 µM

Looking up O=C1c2ccccc2S(=O)(=O)N1c1c(F)c(F)c(F)c(F)c1F , I found its IC50 recorded as 143 µM

----------
# Test Target: Trypsin (Bos taurus, UniProt P00760)
# Construct: purchased Worthington TRL
# Sequence (P00760 24-246): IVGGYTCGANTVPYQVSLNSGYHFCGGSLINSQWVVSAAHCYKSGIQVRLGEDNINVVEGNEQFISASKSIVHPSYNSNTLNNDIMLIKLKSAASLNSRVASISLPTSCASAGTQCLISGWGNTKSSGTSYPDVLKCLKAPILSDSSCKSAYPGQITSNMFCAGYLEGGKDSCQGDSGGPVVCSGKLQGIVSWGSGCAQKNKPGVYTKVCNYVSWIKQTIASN
# Assay Procedure: Trypsin inhibition (BAPA hydrolysis, 410 mμ)
# Type: biochemical, bovine
# Test Settings: 1.0 mM BAPA, pH 7.5; read-out: ID50 Trypsin (converted)
Experimental Endpoint: IC50
Record the result as number plus unit.

Looking up O=C(c1cccs1)N1C(=O)c2ccccc2S1(=O)=O [reference compound] , I found its IC50 recorded as 0.0682 µM

Looking up C=CC(=O)N1C(=O)c2ccccc2S1(=O)=O [reference compound] , I found its IC50 recorded as 1.69 µM

Looking up O=C(c1ccco1)N1C(=O)c2ccccc2S1(=O)=O [reference compound] , I found its IC50 recorded as 1.8 µM

Looking up N#Cc1ccc(N2C(=O)c3ccccc3S2(=O)=O)c(C#N)c1 , I found its IC50 recorded as 162 µM

Looking up CCC(CC)C(=O)N1C(=O)c2ccccc2S1(=O)=O [reference compound] , I found its IC50 recorded as 3.55 µM

Looking up O=C1c2ccccc2S(=O)(=O)N1c1ncccc1[N+](=O)[O-] , I found its IC50 recorded as 65.5 µM

----------
# Test Target: Porcine Pancreatic Elastase (Sus scrofa)
# Construct: purchased Worthington
# Sequence (P00772 27-266): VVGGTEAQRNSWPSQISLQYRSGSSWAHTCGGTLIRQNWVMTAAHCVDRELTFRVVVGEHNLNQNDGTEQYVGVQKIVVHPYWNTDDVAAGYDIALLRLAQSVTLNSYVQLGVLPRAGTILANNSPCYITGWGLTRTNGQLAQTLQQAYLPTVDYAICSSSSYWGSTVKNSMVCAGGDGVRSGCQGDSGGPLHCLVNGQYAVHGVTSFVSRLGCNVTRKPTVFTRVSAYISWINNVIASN
# Assay Procedure: Porcine pancreatic elastase inhibition (Boc-AAPAN hydrolysis, 410 mμ)
# Type: biochemical
# Test Settings: 0.2 mM Boc-AAPAN, pH 7.5, purified PPE; read-out: ID50 Porcine Pancreatic Elastase (converted)
# strict inequality: IC50 < 100 µM yields Criterion met, everything else yields Criterion not met

Task: Record O=C1c2ccccc2S(=O)(=O)N1c1ccc([N+](=O)[O-])cc1[N+](=O)[O-] : is its IC50 strictly below 100 µM?
Result: Criterion not met

Task: Record O=C(c1cccs1)N1C(=O)c2ccccc2S1(=O)=O [reference compound] : is its IC50 strictly below 100 µM?
Result: Criterion met

Task: Record O=C1c2ccccc2S(=O)(=O)N1c1ncccc1[N+](=O)[O-] : is its IC50 strictly below 100 µM?
Result: Criterion met

Task: Record O=C1c2ccccc2S(=O)(=O)N1c1c(F)c(F)c(F)c(F)c1F : is its IC50 strictly below 100 µM?
Result: Criterion not met

Task: Record N#Cc1ccc(N2C(=O)c3ccccc3S2(=O)=O)c(C#N)c1 : is its IC50 strictly below 100 µM?
Result: Criterion not met

Task: Record CCC(CC)C(=O)N1C(=O)c2ccccc2S1(=O)=O [reference compound] : is its IC50 strictly below 100 µM?
Result: Criterion met

Task: Record O=C1c2ccccc2S(=O)(=O)N1c1ccc([N+](=O)[O-])cc1 [reference compound] : is its IC50 strictly below 100 µM?
Result: Criterion not met

Task: Record O=C(c1ccco1)N1C(=O)c2ccccc2S1(=O)=O [reference compound] : is its IC50 strictly below 100 µM?
Result: Criterion met

Task: Record N#Cc1cc([N+](=O)[O-])ccc1N1C(=O)c2ccccc2S1(=O)=O : is its IC50 strictly below 100 µM?
Result: Criterion met

Task: Record C=CC(=O)N1C(=O)c2ccccc2S1(=O)=O [reference compound] : is its IC50 strictly below 100 µM?
Result: Criterion met
